Origin of values: patent US8188135B2

Measured half-life, listed per entry for reference.
- run-description: pharmacokinetic studies in rats
- run-parameters: male, Sprague-Dawley, rat, in vivo, iv, 3 micromole/kg
reported-endpoint: half-life (h)

molecule	unit-info	experimental-value
CCCCn1/c(=N/C(=O)c2cc(Cl)ccc2OC)cc(C(C)(C)C)n1C [B, reference compound]	h	1.7
Cn1c(C(C)(C)C)c/c(=N\C(=O)c2cc(C(F)(F)F)ccc2OCC(C)(C)O)n1C[C@H]1CCCO1 [Example 5]	h	2.1
Cn1c(C(C)(C)C)c/c(=N\C(=O)c2cccc(C(F)(F)F)c2F)n1CC1CC1 [A, reference compound]	h	0.7
COc1ccc(C(F)(F)F)cc1C(=O)/N=c1\cc(C(C)(C)C)n(C)n1CC1CC1 [F, reference compound]	h	2.1
CCCCCn1/c(=N/C(=O)c2cc(C#N)ccc2OCC(C)(C)O)cc(C(C)(C)C)n1C [Example 115]	h	0.6
Cn1c(C2(C)CC2)c/c(=N\C(=O)c2cc(C(F)(F)F)ccc2OCC(C)(C)O)n1C[C@H]1CCCO1 [Example 70]	h	2.3
CCCCn1/c(=N/C(=O)c2cc(C(F)(F)F)ccc2Cl)cc(C(C)(C)C)n1C [D, reference compound]	h	0.3
Cn1c(C(C)(C)C)c/c(=N\C(=O)c2cc(C(F)(F)F)ccc2OCCC(C)(C)O)n1CC1CC1 [Example 51]	h	3.2
CCCCn1/c(=N/C(=O)c2cc(C(F)(F)F)ccc2OCC(C)(C)O)cc(C(C)(C)C)n1C [Example 81]	h	5
CCCCn1/c(=N/C(=O)c2cc(C(F)(F)F)ccc2OC)cc(C(C)(C)C)n1C [E, reference compound]	h	2.9
Cn1c(C(C)(C)C)c/c(=N\C(=O)c2cc(C(F)(F)F)ccc2OCC(C)(C)O)n1CC1CC1 [Example 71]	h	4.7
C[C@@H](O)COc1ccc(C(F)(F)F)cc1C(=O)/N=c1\cc(C(C)(C)C)n(C)n1C[C@H]1CCCO1 [Example 91]	h	2.5
Cn1c(C(C)(C)C)c/c(=N\C(=O)c2cc(C(F)(F)F)ccc2OCC(C)(C)O)n1CCC(F)(F)F [Example 87]	h	3.2
Cn1c(C(C)(C)C)c/c(=N\C(=O)c2cc(C#N)ccc2OCC(C)(C)O)n1CC1CCCC1 [Example 127]	h	0.8
Cn1c(C(C)(C)C)c/c(=N\C(=O)c2cc(C#N)ccc2OCC(C)(C)O)n1C[C@H]1CCCO1 [Example 90]	h	2.1

###

Measured bioavailability, listed per entry for reference.
- run-description: pharmacokinetic studies in rats
- run-parameters: male, Sprague-Dawley, rat, in vivo, po, 10 micromole/kg
reported-endpoint: bioavailability (%)

molecule	experimental-value
Cn1c(C(C)(C)C)c/c(=N\C(=O)c2cc(C(F)(F)F)ccc2OCC(C)(C)O)n1CCC(F)(F)F [Example 87]	64
CCCCn1/c(=N/C(=O)c2cc(Cl)ccc2OC)cc(C(C)(C)C)n1C [B, reference compound]	11
CCCCn1/c(=N/C(=O)c2cc(C(F)(F)F)ccc2OCC(C)(C)OC)cc(C(C)(C)C)n1C [G, reference compound]	5
Cn1c(C(C)(C)C)c/c(=N\C(=O)c2cc(C#N)ccc2OCC(C)(C)O)n1CC1CCCC1 [Example 127]	60
Cn1c(C(C)(C)C)c/c(=N\C(=O)c2cc(C(F)(F)F)ccc2OCC(C)(C)O)n1C[C@H]1CCCO1 [Example 5]	37
Cn1c(C(C)(C)C)c/c(=N\C(=O)c2cccc(C(F)(F)F)c2F)n1CC1CC1 [A, reference compound]	26
CCCCn1/c(=N/C(=O)c2cc(C(F)(F)F)ccc2OC)cc(C(C)(C)C)n1C [E, reference compound]	9
Cn1c(C(C)(C)C)c/c(=N\C(=O)c2cc(C(F)(F)F)ccc2OCC(C)(C)O)n1CC1CCC1 [Example 86]	50
CCCCn1/c(=N/C(=O)c2cc(C(F)(F)F)ccc2Cl)cc(C(C)(C)C)n1C [D, reference compound]	10
Cn1c(C2(C)CC2)c/c(=N\C(=O)c2cc(C(F)(F)F)ccc2OCCC(C)(C)O)n1C[C@H]1CCCO1 [Example 68]	25
Cn1c(C(C)(C)C)c/c(=N\C(=O)c2cc(C#N)ccc2OCC(C)(C)O)n1C[C@H]1CCCO1 [Example 90]	28
COc1ccc(C(F)(F)F)cc1C(=O)/N=c1\cc(C(C)(C)C)n(C)n1CC1CC1 [F, reference compound]	11
Cn1c(C2(C)CC2)c/c(=N\C(=O)c2cc(C(F)(F)F)ccc2OCC(C)(C)O)n1C[C@H]1CCCO1 [Example 70]	46
Cn1c(C(C)(C)C)c/c(=N\C(=O)c2cc(C(F)(F)F)ccc2OCCC(C)(C)O)n1C[C@H]1CCCO1 [Example 20]	27
Cn1c(C(C)(C)C)c/c(=N\C(=O)c2cc(Cl)ccc2OCC(C)(C)O)n1C[C@H]1CCCO1 [Example 89]	37
